Taken from ChEMBL document CHEMBL1201862.

# Tested on: MDA-MB-435
# run_description: NCI tumour cell line growth inhibition, 48 h
Calls of active or inactive are those of the source. Rule as the data show it: active = GI50 up to about 1.1 µM and inactive = higher.
Permitted responses: TRUE = active, FALSE = inactive

Assay result, entry O=C(Cc1ccccc1)NN1C(=O)/C(=C\c2ccc([N+](=O)[O-])cc2)S/C1=N\c1ccccc1 — outcome? FALSE

For CC(NC1=NCCO1)c1ccsc1 (configuration not stated) , which call appears in the assay record? FALSE

Identify the outcome logged in this assay for the compound shown: Cc1c2c(OCCCCN3CCN(c4ncccn4)CC3)nn(C)c(=O)c2c(C)n1-c1ccccc1 FALSE

Which outcome was assigned to Cc1cccc2c1[C@]13OC(C)[C@]4(C)CC5OC(=O)[C@@]1(C)[C@@H]5[C@]34C(=O)O2 (some centres not stated) in this test? FALSE

Dear all, I need the recorded test outcome for O=C1CC(c2ccc([N+](=O)[O-])cc2)C2(C(=O)NC(=S)NC2=O)C(c2ccc([N+](=O)[O-])cc2)C1 (configuration not stated) , thank you. FALSE

Which result was noted for this compound in the test: C/C=C(/CBr)CCC(Br)C(C)(C)Cl.C/C=C(\CBr)CCC(Br)C(C)(C)Cl (configuration not stated) FALSE

Tell me the recorded outcome of this test for CCCC(=O)OC(OC(=O)CCC)c1ccc([N+](=O)[O-])o1 . FALSE

Give the logged outcome of this assay for the following compound: Cc1ncc([N+](=O)[O-])n1CCNC(=O)CCC(=O)NCCCn1ccnc1[N+](=O)[O-] FALSE

Check the results log: what was the call for Cc1cc(S(=O)(=O)Nc2nc3ccccc3c(=O)n2N)c(S)cc1Cl ? FALSE

Outcome logged for CC(=O)O[C@H]1C(=O)[C@@]2(C)C(C(OC(=O)c3ccccc3)[C@]3(O)CC(OC(=O)[C@H](OC(=O)CCC(=O)O)C(NC(=O)c4ccccc4)c4ccccc4)C(C)=C1C3(C)C)C1(OC(C)=O)COC1C[C@@H]2O (some centres not stated) in this assay: TRUE

Which result was noted for this compound in the test: O=[N+]([O-])c1ccc(NN/N=N/c2ccc(-c3nc4ccccc4[nH]3)cc2)c([N+](=O)[O-])c1 FALSE

Per the records of this test, what outcome belongs to NCCCCc1cc(O)c2c(c1O)C(=O)c1ccccc1C2=O ? FALSE

In this assay, the call recorded for Oc1ccc(Nc2nc(Cl)c3nc[nH]c3n2)cc1 was what? FALSE

Field: outcome | Entry: COCC[N+](CCNC(=O)c1cccc2c(N)c3cccc(C)c3nc12)(CCOC)Cc1ccc([N+](=O)[O-])cc1 FALSE

Can you look up the reported call for CCOP(=O)(OCC)c1cc(-c2ccccc2)ccc1N for me? FALSE

Given COCOc1c(C(OCOC)c2cnc(Sc3ccccc3)n2C)ccc(OC)c1OC (configuration not stated) , state the outcome it received in this test. FALSE

// return assay outcome for Brc1ccccc1-c1ncc(-c2ccccc2)o1 FALSE

Look up the recorded call for O=C1/C(=C/c2ccccc2O)N=C(c2ccccc2)N1C1Nc2cc3c(cc2S1)NC(N1C(=O)/C(=C/c2ccccc2O)N=C1c1ccccc1)S3 (configuration not stated) in this test. FALSE

Hello, I am checking results. What call was entered for O=C(O)C(=Cc1ccc(-c2ccccc2)cc1)C(=O)O ? FALSE

What classification did N#Cc1nc(/C=C/c2nc(C#N)c(N)o2)oc1N end up with in this test? FALSE

Recorded call for Cc1ccccc1Nc1nc2ccccc2nc1NS(=O)(=O)c1ccccc1 ? FALSE

Please indicate how the test categorized CCC[C@@H]1C(=O)N=C(N)N1C(=O)OCc1ccccc1 . FALSE

Returns: the outcome recorded for O=C1Nc2ccccc2/C1=N/Nc1ccc([N+](=O)[O-])cc1[N+](=O)[O-] in this assay. FALSE

Lab log entry: CNC(=O)c1nn[nH]c1O — outcome as called in the assay? FALSE

# fetch the recorded call for COc1ccc(C)cc1Nc1nnc(-c2ccc(N)cc2)s1 here FALSE

Could you kindly confirm the outcome this assay logged for COC(=O)/C=c1/c2ccccc2n2c1c1ccccc1[n+]2C ? FALSE

GET /call?item= Cc1cccc(C)c1NC(=O)C(C#N)C1=C(Cl)C(=O)c2ccccc2C1=O (configuration not stated) returns the recorded outcome of this test. FALSE

Hi team, can someone confirm the assay call for Cc1cc2[nH]c3c(C#N)c(-c4ccccc4)c(CN4CCOCC4)c(=O)n3c2cc1C ? FALSE

Status in this test for COC(=O)C1Cc2c(OC)ccc(OC)c2CC(C(=O)OC)C1=O (configuration not stated) ? FALSE

Assay result, entry O=C1CSC(c2ccccc2[N+](=O)[O-])N1c1ccc(-n2c(-c3ccccc3)nc3ccccc3c2=O)cc1 (configuration not stated) — outcome? FALSE

Hello, I am checking results. What call was entered for O=C(O)CCc1nc2c(n1-c1ccccc1)C(=O)c1ccccc1C2=O ? FALSE

Returns: the outcome recorded for COc1cc(C2c3cc4c(cc3OC(O)C2C)OCO4)cc(OC)c1OC (configuration not stated) in this assay. TRUE
